measured-target: NADPH oxidase 2 (Homo sapiens) (UniProt P04839)
Sequence (P04839 whole entry, looked up): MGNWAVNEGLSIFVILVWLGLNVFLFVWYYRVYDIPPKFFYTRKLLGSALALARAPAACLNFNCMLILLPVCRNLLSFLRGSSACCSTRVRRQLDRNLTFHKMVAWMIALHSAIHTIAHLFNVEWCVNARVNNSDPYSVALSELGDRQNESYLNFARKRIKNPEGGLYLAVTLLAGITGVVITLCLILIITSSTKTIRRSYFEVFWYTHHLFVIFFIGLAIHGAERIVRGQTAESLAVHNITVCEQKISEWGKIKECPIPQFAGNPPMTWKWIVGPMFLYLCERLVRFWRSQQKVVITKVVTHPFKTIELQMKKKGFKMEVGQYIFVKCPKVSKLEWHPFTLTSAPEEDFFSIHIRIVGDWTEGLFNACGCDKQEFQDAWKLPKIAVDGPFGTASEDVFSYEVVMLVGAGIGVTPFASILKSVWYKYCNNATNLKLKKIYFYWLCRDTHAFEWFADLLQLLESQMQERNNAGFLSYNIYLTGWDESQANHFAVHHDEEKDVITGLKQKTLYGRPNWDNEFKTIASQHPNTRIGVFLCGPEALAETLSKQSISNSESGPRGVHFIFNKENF
method-summary: NOX2-dependent H2O2 signal modulators, primary screen, NOX inhibitor project, cell-based, HEK293-NOX2, PMA-stimulated, Amplex Red fluorescence (AID 1159); also: test concentration not given here
assay-context: 45 min, higher = more signal, called active from +8 up or from −8 down

substance-smiles: Cc1ccc(F)cc1S(=O)(=O)N[C@@H]1CCN(Cc2ccc(-c3ccccc3)cc2)C1
z-score: 0.335

substance-smiles: [N-]=[N+]=NCc1ccccc1[C@H]1OC(c2ccc(OCCCO)cc2)=N[C@@]1(CCS(=O)(=O)c1ccccc1)C(=O)N1CCOCC1
z-score: 1.24

substance-smiles: COc1ccc([Si](C)(C)[C@@H]2[C@@H](CCn3cc([C@H](O)c4ccccc4)nn3)O[C@]3(C(=O)N(Cc4cccc(N5CCOC5=O)c4)c4ccccc43)[C@H]2C)cc1
z-score: -0.662

substance-smiles: CCCCCCc1nc(CCCc2cc3c(c(CCCCCC)n2)[Si](C(C)C)(C(C)C)OC3)cc2c1[Si](C(C)C)(C(C)C)OC2
z-score: -3.69

substance-smiles: COC(=O)[C@@]1(Cc2ccc(OC)cc2)[C@H]2c3cc(C(=O)N4CCCC4)n(Cc4cc(F)cc5c4OCOC5)c3C[C@H]2CN1C(=O)c1ccccc1
z-score: -0.327

substance-smiles: COC(=O)c1c(CC[C@@H](CO)NC(=O)N[C@@H](Cc2ccccc2)Cn2cc(C3(O)CCCCC3)nn2)oc(C(C)=O)c1C(=O)OC
z-score: -5.26

substance-smiles: CCCCC=C[C@@H](NC(=O)c1ccco1)c1ccccc1
z-score: -0.226

###

method-summary: FRG1 promoter luciferase signal modulators, primary screen, FRG1 inhibition for FSHD, cell-based, C2C12 myotubes, firefly/Renilla luciferase, luminescence (AID 1084)
assay-context: higher = more signal, called active from +8 up or from −8 down
Activity calls are given as the source filed them.
Measured z-score, listed per entry.

compound: CC(c1ccccc1)C(O)C1C=CC2C(=O)NC(=O)C2N1Nc1ccccn1 (centres undefined)
z-score: 1.14 (inactive)
//
compound: C=CCC(OC(C)=O)[C@@H]1[C@@H](N(Cc2ccc(-c3cccc(C(F)(F)F)c3)o2)C(=O)c2ccc(C)cc2)c2cc(OCCCO)ccc2N1C(=O)c1ccc(-c2ccccc2)cc1 (some centres undefined)
z-score: 0.887 (inactive)
//
compound: COC(=O)[C@@]1(Cc2ccccc2)N=C(c2ccc(OCCCO)cc2)O[C@H]1c1ccccc1N=[N+]=[N-]
z-score: 3.69 (inactive)
//
compound: C=C(COC)C(=O)CC[C@H](OC(C)=O)c1cccc(OCCO)c1
z-score: 0.39 (inactive)

###

method-summary: binders from COS7 lysate, DM2A8 probe, primary screen, torsin A project, cell lysate, small-molecule microarray, fluorescence 635/667 (AID 1065)
assay-context: higher = more signal, COS7 lysate expressing mutant human TOR1A
Catalogue of composite z-score values

compound: COc1ccc(C(O)C2C=CC3C(=O)N(c4ccccc4)C(=O)C3N2Nc2ccc([N+](=O)[O-])cc2)cc1OCc1ccccc1 (stereo not drawn)
composite z-score: -0.14
--
compound: C=CCC(OC(C)=O)[C@@H]1[C@@H](N(Cc2cccc3ccccc23)C(=O)c2cccc3ccccc23)c2cc(OCCCO)ccc2N1C(=O)c1ccc2ccccc2n1 (stereo partly drawn)
composite z-score: 0.215
--
compound: CN1C(=O)C2C=CC(C(O)c3ccccn3)N(Nc3ccccc3)C2C1=O (stereo not drawn)
composite z-score: 1.11
--
compound: C=CCC(OC(C)=O)[C@@H]1[C@@H](N(Cc2cccc3ccccc23)C(=O)c2ccc(C)cc2)c2cc(OCCCO)ccc2N1C(=O)Cc1ccc(OC)cc1 (stereo partly drawn)
composite z-score: 0.307
--
compound: CCOC(=O)C1=CCC(C(C)(C)C)N(S(=O)(=O)c2ccc(C)cc2)C1 (stereo not drawn)
composite z-score: 2.2
--
compound: O=C1C2C=CC(C(O)c3cccs3)N(Nc3ccccc3F)C2C(=O)N1c1ccccc1 (stereo not drawn)
composite z-score: 0.28
--
compound: COc1ccc([Si](C)(C)[C@@H]2[C@@H](CCn3cc([C@H](O)c4ccccc4)nn3)O[C@]3(C(=O)N(Cc4ccc(N5C(=O)c6cccc7cccc5c67)cc4)c4ccccc43)[C@H]2C)cc1
composite z-score: 0.174
--
compound: [N-]=[N+]=NCc1ccccc1[C@@H]1OC(c2ccc(OCCCO)cc2)=N[C@]1(Cc1ccccc1N=[N+]=[N-])C(=O)NCc1ccccc1
composite z-score: 0.485
--
compound: CC(C)OC(=O)CC(=O)CC(O)c1ccc(C#N)cc1 (stereo not drawn)
composite z-score: 0.435
--
compound: CC1=C2[C@@H](CCc3ccccc3)OB(O)C[C@@H]2n2c(=O)n(-c3ccccc3)c(=O)n2C1
composite z-score: -0.214
--
compound: C=CCC(OC(C)=O)[C@@H]1[C@@H](N(Cc2cc3ccccc3o2)C(=O)c2ccc(C)cc2)c2cc(OCCCO)ccc2N1C(=O)c1ccc2ccccc2c1 (stereo partly drawn)
composite z-score: 0.117
--
compound: COCCOC(=O)N1C(=O)[C@@]2(c3ccccc31)[C@H](C(=O)NC[C@H](O)c1ccccc1)[C@H]1C(=O)O[C@H](c3ccccc3)[C@H](c3ccccc3)N1[C@@H]2c1ccc(OCCO)cc1
composite z-score: 0.591
--
compound: CC(C)CNC(=O)[C@@]1(c2ccc([N+](=O)[O-])cc2)CC(=O)N(CC23CC4CC(CC(C4)C2)C3)[C@@H]1c1ccc(CO)cc1
composite z-score: 1.83
--
compound: O=C1N(CCS(=O)(=O)c2ccccc2)Cc2ccccc2[C@H]2OC(c3ccc(OCCCO)cc3)=N[C@@]12CCS(=O)(=O)c1ccccc1
composite z-score: 0.994
--
compound: CC(C)NC(=O)[C@@H]1c2ccccc2C(=O)N(Cc2ccccc2)[C@H]1c1ccc(CO)cc1
composite z-score: 0.0445
--
compound: CCOC(=O)C[C@H]1[C@H](OC(=O)c2ccc(-c3ccccc3)cc2)[C@@H](NC(=O)Cc2ccc(OC)cc2)c2cc(OCCCO)ccc2N1C(=O)c1ccc2ccccc2n1
composite z-score: -0.188
--
compound: CCCC[C@@H]1C[C@H]1[C@@H](NC(=O)c1ccc(-c2ccccc2)cc1)c1ccc(-c2ccccc2)cc1
composite z-score: 0.0257
--
compound: COCCCNC(=O)[C@@]1(c2ccc([N+](=O)[O-])cc2)CC(=O)N(CC23CC4CC(CC(C4)C2)C3)[C@@H]1c1ccc(CO)cc1
composite z-score: 0.666
--
compound: O=C1OCCC=C[C@H]2OC34C=CCN(c5ccc6ccccc6c5)C(=O)[C@H]3N(CCCCCO)C(=O)[C@@H]4C12 (stereo partly drawn)
composite z-score: 2.06
--
compound: NC(=O)NCC#Cc1ccc2c(c1)[C@]1(C(=O)N2)[C@H](C(=O)N2CCCCCCC2)[C@H]2C(=O)O[C@H](c3ccccc3)[C@H](c3ccccc3)N2[C@@H]1c1ccc(OCCO)cc1
composite z-score: 0.756
--
compound: C=CCNC(=O)[C@H]1[C@@H]2C(=O)O[C@@H](c3ccccc3)[C@@H](c3ccccc3)N2[C@@H](c2ccc(O)cc2)[C@]12C(=O)N(C(=O)OCCOC)c1ccc(C#CCCO)cc12
composite z-score: 1.93
--
compound: COc1cccc(C(=O)O[C@H]2CC[C@]3(C)C4=C(CCC3C2(C)C)[C@]2(C)CC[C@H]([C@H](C)CCCC(C)C)[C@@]2(C)CC4)c1 (stereo partly drawn)
composite z-score: 0.0024
--
compound: [N-]=[N+]=NCc1ccccc1C[C@]1(C(=O)O)N=C(c2ccc(OCCCO)cc2)O[C@H]1c1ccccc1CN=[N+]=[N-]
composite z-score: 0.169
--
compound: CCCCCCc1nc(CCCc2cc3c(c(CCCCCC)n2)[Si](C(C)C)(C(C)C)OC3)cc2c1[Si](C(C)C)(C(C)C)OC2
composite z-score: 0.0271
--
compound: Cc1ccc(F)cc1S(=O)(=O)N[C@@H]1CCN(Cc2ccc(-c3ccccc3)cc2)C1
composite z-score: 0.504
--
compound: CC(C)c1ccc(NN2C(C(O)c3cccc(O)c3)C=CC3C(=O)N(c4ccccc4)C(=O)C32)cc1 (stereo not drawn)
composite z-score: 0.422
--
compound: CCCCCN1CC=CC23O[C@@H]4/C=C\CCCOC(=O)C4[C@H]2C(=O)N(CCCCCCO)[C@@H]3C1=O (stereo partly drawn)
composite z-score: 0.109
--
compound: Cc1ccccc1C(O)C1C=CC2C(=O)N(C)C(=O)C2N1Nc1ccccc1 (stereo not drawn)
composite z-score: 0.526

###

measured-target: Luciferin 4-monooxygenase (Photinus pyralis)
method-summary: firefly luciferase enzyme inhibitors, primary screen, biochemical, luminescence, purified enzyme, 2006 set (AID 1141);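 also: cell-free assay with purified firefly luciferase at 100 ng per well in PBS; test concentration not given here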
assay-context: SteadyGlo luminescence, 30 min, higher = more signal, called active from +8 up or from −8 down

compound: CCCCCCCCCCC(O)C1C=CC2C(=O)N(Cc3ccccc3)C(=O)C2N1n1cnnc1 (stereo not given)
z-score: 0.892
--
compound: CC=CC(O)C1C=CC2C(=O)N(c3ccccc3)C(=O)C2N1Nc1ccc(C(C)C)cc1 (stereo not given)
z-score: -0.959
--
compound: COCCOC(=O)N1C(=O)[C@@]2(c3cc(C#CCNC(N)=O)ccc31)[C@H](C(=O)N1CCc3cc(OC)c(OC)cc3C1)[C@H]1C(=O)O[C@H](c3ccccc3)[C@H](c3ccccc3)N1[C@@H]2c1ccc(OCCO)cc1
z-score: -0.553
--
compound: CO[C@H]1O[C@H](CO)[C@@H](OC(=O)Nc2ccc3c(c2)OCO3)[C@H](OC(=O)Nc2ccccc2)[C@H]1OC(=O)Nc1ccccc1
z-score: -0.546
--
compound: [N-]=[N+]=NCc1ccccc1C[C@]1(C(=O)O)N=C(c2ccc(OCCCO)cc2)O[C@H]1c1ccccc1
z-score: 0.414
--
compound: CC(C)=CCCC(C)=CC(O)C1C=CC2C(=O)N(c3ccccc3)C(=O)C2N1Nc1ccccc1 (stereo not given)
z-score: 0.0145
--
compound: CCCCC=C[C@@H](NC(=O)c1cccs1)c1ccccc1
z-score: 0.969
--
compound: CCN(CC)c1ccc(N2CC=CC34O[C@@H]5C=CCCOC(=O)C5[C@H]3C(=O)N(CCCCCO)[C@@H]4C2=O)cc1 (stereo not given in full)
z-score: -1.29
--
compound: CCC[C@@H]1C=C(C(=O)O)[C@H](c2ccc(C)cc2)N1S(=O)(=O)c1ccc(C)cc1
z-score: 1.79
--
compound: CC(C)(C)OC(=O)CC[C@@]1(C(=O)NCCN2CCOCC2)N=C(c2ccc(OCCCO)cc2)O[C@@H]1c1ccccc1
z-score: -1.66
--
compound: C=CC[C@@]1(C(=O)N2CCOCC2)N=C(c2ccc(OCCCO)cc2)O[C@@H]1c1ccccc1N=[N+]=[N-]
z-score: -11.4
--
compound: COc1cc2c(cc1OC)CN(C(=O)[C@@H]1[C@H]3C(=O)O[C@H](c4ccccc4)[C@H](c4ccccc4)N3[C@H](c3ccccc3OCCO)[C@@]13C(=O)Nc1ccc(C#CCNC(N)=O)cc13)CC2
z-score: -1.64
--
compound: COc1ccc([Si](C)(C)[C@H]2[C@H](CC(=O)N(CCO)Cc3ccccc3)O[C@@]3(C(=O)N(Cc4cccc(N5CCC5=O)c4)c4ccccc43)[C@@H]2C)cc1
z-score: 0.272
--
compound: Cc1ccc(F)cc1S(=O)(=O)N[C@@H]1CCN(Cc2ccc(-c3ccccc3)cc2)C1
z-score: 0.715
--
compound: CS(=O)(=O)CCOC(=O)C1=CC(c2ccc(CO)cc2)=CC(C2CC2)N(Cc2cc3c(cc2Br)OCO3)C=C1C(=O)OCCS(C)(=O)=O (stereo not given)
z-score: -1.51
